target: 15-PGDH/HPGD (Homo sapiens, UniProt P15428); experiment: hPGDH inhibitor screening biochemical assay; settings: 10 nM enzyme, 15 μM Prostaglandin E2, 0.25 mM NAD, fluorescence ex/em 340/485 nm
Sequence (P15428 whole entry): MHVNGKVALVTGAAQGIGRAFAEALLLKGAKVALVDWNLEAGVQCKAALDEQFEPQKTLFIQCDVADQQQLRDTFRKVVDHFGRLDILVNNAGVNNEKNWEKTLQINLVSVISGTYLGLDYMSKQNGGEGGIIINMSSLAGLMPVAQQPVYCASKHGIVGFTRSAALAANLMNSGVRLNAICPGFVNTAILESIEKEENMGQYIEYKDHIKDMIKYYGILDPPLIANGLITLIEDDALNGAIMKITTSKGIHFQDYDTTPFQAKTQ
# maps each entry to its IC50
Measurement name: IC50

compound="Cc1nn(-c2ccc(C(=O)O)cc2)c2ncc([C@H](O)COC3CC3)cc12 [Compound 126B]" reported_value="< 0.1 µM"
compound="CC(C)OC[C@H](O)c1cnc2c(cnn2-c2ccc(C(=O)O)cc2)c1 [Compound 48A]" reported_value="< 0.1 µM"
compound="O[C@@H](COC1CCC1)c1cnc2c(cnn2-c2ccc(N3CCCC3)cc2)c1 [Compound 75B]" reported_value="≥ 1 µM"
compound="CC(C)(O)c1cnc2c(ccn2-c2cc(Cl)cc(-c3nnc[nH]3)c2)c1 [Compound 14]" reported_value="0.1 to 1 µM"
